Values from patent US9475817B2

The following are reported pIC50 results, target or system CK1ε (Homo sapiens (Human), UniProt P49674).
pIC50: −log10 of the molar value.
PARAMETER MEASURED: pIC50

// below: answered compounds
>>> df
                                   compound  numeric_readout
0  Cn1nc(-c2ccc(F)cc2)c(-c2ccc3nc(NC(=O)c4ccnc(F)c4)cn3n2)c1N1CCN(C(=O)CN)CC1 [Compound 123]             9.70
1  Cn1nc(-c2ccc(F)cc2)c(-c2ccc3nc(NC(=O)c4ccnc(N5CCOCC5)c4)cn3n2)c1C1CCNCC1 [Compound 160]             9.00
2  Cn1nc(-c2ccc(F)cc2)c(-c2ccc3nc(NC(=O)c4ccnc(N5CCOCC5)c4)cn3n2)c1N1CCN(C(=O)CC(F)(F)F)CC1 [Compound 138]             8.03
3  Cn1cc(-c2ccc3nc(NC(=O)C4CCCCCC4)cn3n2)c(-c2ccc(F)cc2)n1 [Compound 88]             7.98
4  Cn1nc(-c2ccc(F)cc2)c(-c2ccc3nc(NC(=O)c4ccnc(F)c4)cn3n2)c1-c1ccncc1 [Compound 202]             8.09

P: Cc1nc(-c2cccnc2)sc1C(=O)Nc1cn2nc(-c3c(-c4ccc(F)cc4)nn(C)c3C3CCN(Cc4ccon4)CC3)ccc2n1 [Compound 176]
Q: CN1CCC(c2c(-c3ccc4nc(NC(=O)c5ccncc5)cn4n3)c(-c3ccc(F)cc3)nn2C)CC1 [Compound 165]
Request: Form field 'greater pIC50' accepts P or Q ; which applies? Mark your selection by writing its label.
Result: P
(P: 9.40, Q: 8.30)

---

The following are reported pIC50 results, target or system CK1δ (Homo sapiens (Human)).
pIC50: −log10 of the molar value.
PARAMETER MEASURED: pIC50

I: Cn1nc(-c2ccc(F)cc2)c(-c2ccc3nc(NC(=O)c4ccnc(F)c4)cn3n2)c1N1CCN(C(=O)CC(F)(F)F)CC1 [Compound 121]
II: Cn1nc(-c2ccc(F)cc2)c(-c2ccc3nc(NC(=O)c4ccnc(F)c4)cn3n2)c1C1CCN(C(=O)c2cncs2)CC1 [Compound 154]
III: Cn1cc(-c2ccc3nc(Nc4ncccn4)cn3n2)c(-c2ccc(F)cc2)n1 [Compound 185]
IV: Cn1cc(C(=O)Nc2cn3nc(-c4cn(C)nc4-c4ccc(F)cc4)ccc3n2)cn1 [Compound 98]
Request: Put the items in order so that reported pIC50 rises from first to last. // list labels; follow requested order
Result: III, IV, I, II
(III: 7.80, IV: 8.59, I: 8.92, II: 9.52)

---

# SYSTEM UNDER TEST: CK1δ (Homo sapiens (Human), UniProt P48730)
# Sequence (P48730 whole entry): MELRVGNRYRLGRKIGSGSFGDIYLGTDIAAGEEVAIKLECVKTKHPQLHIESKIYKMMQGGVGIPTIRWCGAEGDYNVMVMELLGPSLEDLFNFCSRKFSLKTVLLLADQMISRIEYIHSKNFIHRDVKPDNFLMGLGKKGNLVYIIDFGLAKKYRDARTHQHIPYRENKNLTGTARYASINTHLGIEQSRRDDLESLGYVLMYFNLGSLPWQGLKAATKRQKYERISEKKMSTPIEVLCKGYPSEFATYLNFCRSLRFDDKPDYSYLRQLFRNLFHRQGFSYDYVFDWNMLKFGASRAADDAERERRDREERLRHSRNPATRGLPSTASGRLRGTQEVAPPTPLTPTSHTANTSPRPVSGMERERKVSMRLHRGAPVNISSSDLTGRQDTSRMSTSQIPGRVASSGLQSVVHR
pIC50: −log10 of the molar value.
PARAMETER MEASURED: pIC50

// below: answered compounds
In [3]: df
Out[3]:
                                   compound                         system_under_test  numeric_readout
0  Cc1nc(-c2ccncc2)sc1C(=O)Nc1cn2nc(-c3c(-c4ccc(F)cc4)nn(C)c3C3CCN(CCC(F)(F)F)CC3)ccc2n1  CK1δ (Homo sapiens (Human), UniProt P48730)             8.96
1  Cn1nc(-c2ccc(F)cc2)c(-c2ccc3nc(NC(=O)c4cccc(-c5cccnc5)c4)cn3n2)c1-c1ccncc1  CK1δ (Homo sapiens (Human), UniProt P48730)             9.05
2  Cn1cc(-c2ccc3nc(NC(=O)c4cc(Cl)nc5ccccc45)cn3n2)c(-c2ccc(F)cc2)n1  CK1δ (Homo sapiens (Human), UniProt P48730)             8.89
3  Cc1c[nH]nc1C(=O)Nc1cn2nc(-c3cn(C)nc3-c3ccc(F)cc3)ccc2n1  CK1δ (Homo sapiens (Human), UniProt P48730)             8.44
4  Cn1cc(-c2ccc3nc(NC(=O)c4ccc(Br)cc4F)cn3n2)c(-c2ccc(F)cc2)n1  CK1δ (Homo sapiens (Human), UniProt P48730)             8.64

P: Cn1cc(-c2ccc3nc(NC(=O)C45CCCC(CCC4)C5)cn3n2)c(-c2ccc(F)cc2)n1
Q: Cn1nc(-c2ccc(F)cc2)c(-c2ccc3nc(NC(=O)c4ccnc(N5CCOCC5)c4)cn3n2)c1N1CCN(Cc2ccon2)CC1
R: Cn1nc(-c2ccc(F)cc2)c(-c2ccc3nc(NC(=O)c4ccnc(N)c4)cn3n2)c1N1CCN(CCC(F)(F)F)CC1
S: Cn1nc(-c2ccc(F)cc2)c(-c2ccc3nc(NC(=O)c4ccnc(F)c4)cn3n2)c1C1CCN(CC(N)=O)CC1
T: Cn1cc(-c2ccc3nc(NC(=O)c4cc(-c5ccc(F)cc5)ncn4)cn3n2)c(-c2ccc(F)cc2)n1
Request: Could you please sort these 5 entries by pIC50 from high to low? // list labels; follow requested order
Result: S, Q, R, P, T
(S: 9.52, Q: 9.10, R: 8.60, P: 8.26, T: 7.52)

P: Cn1cc(-c2ccc3nc(NC(=O)c4cc(C#N)ccc4F)cn3n2)c(-c2ccc(F)cc2)n1
Q: Cn1cc(-c2ccc3nc(NC(=O)c4cnccc4C(F)(F)F)cn3n2)c(-c2ccc(F)cc2)n1
R: Cn1nc(-c2ccc(F)cc2)c(-c2ccc3nc(NC(=O)c4ccnc(N5CCOCC5)c4)cn3n2)c1C1CCN(CC(N)=O)CC1
S: Cn1nc(-c2ccc(F)cc2)c(-c2ccc3nc(NC(=O)c4cc(F)nc(F)c4)cn3n2)c1N1CCOCC1
T: Cn1nc(-c2ccc(F)cc2)c(-c2ccc3nc(NC(=O)c4ccnc(F)c4)cn3n2)c1N1CCN(C(=O)CN)CC1
Request: Could you please sort these 5 entries by pIC50 from high to low? // list labels; follow requested order
Result: T, R, S, P, Q
(T: 10.00, R: 9.40, S: 8.85, P: 8.39, Q: 8.10)

---

# SYSTEM UNDER TEST: CK1δ (Homo sapiens (Human))
pIC50: −log10 of the molar value.
PARAMETER MEASURED: pIC50

A: Cn1cc(-c2ccc3nc(NC(=O)c4cncc(O)c4)cn3n2)c(-c2ccc(F)cc2)n1 [Compound 70]
B: O=C(Nc1cn2nc(-c3cn(C4CC4)nc3-c3ccc(F)cc3)ccc2n1)C1CC1 [Compound 101]
Request: Form field 'greater pIC50' accepts A or B ; which applies? Mark your selection by writing its label.
Result: A
(A: 8.70, B: 7.55)

---

# SYSTEM UNDER TEST: CK1ε (Homo sapiens (Human), UniProt P49674)
# Sequence (P49674 whole entry): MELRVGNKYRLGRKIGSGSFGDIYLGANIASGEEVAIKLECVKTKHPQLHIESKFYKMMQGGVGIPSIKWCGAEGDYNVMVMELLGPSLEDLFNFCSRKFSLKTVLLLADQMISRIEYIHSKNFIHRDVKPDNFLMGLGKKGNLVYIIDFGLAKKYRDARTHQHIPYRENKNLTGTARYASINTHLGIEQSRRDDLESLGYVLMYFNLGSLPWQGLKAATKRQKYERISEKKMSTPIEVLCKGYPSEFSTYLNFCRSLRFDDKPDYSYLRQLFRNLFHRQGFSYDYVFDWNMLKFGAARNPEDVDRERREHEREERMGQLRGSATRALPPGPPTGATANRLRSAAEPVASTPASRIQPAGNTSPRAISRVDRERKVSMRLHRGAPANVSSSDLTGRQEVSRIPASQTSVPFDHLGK
# TEST DESCRIPTION: CK1ε kinase assay (Caliper LabChip, fluoresceinated peptide substrate)
# Type: biochemical
# RUN CONDITIONS: 200 pM CK1ε, 50 μM ATP, 1.5 μM peptide substrate, 22 hours room temperature
# Protocol: CK1ε and CK1δ Kinase Assays The kinase assay was performed in V-bottom 384-well plates. […] The reaction was incubated at room temperature for 22 hours and terminated by adding 45 μl of 35 mM EDTA to each sample. […] Compounds were dissolved at 10 mM in dimethylsulfoxide (DMSO) and evaluated at eleven concentrations. IC50 values were derived by non-linear regression analysis.
Structures can show the parent of a compound that is named as a salt.
PARAMETER MEASURED: IC50 (nM)

>>> print(df.to_string())
                                   compound  uom  numeric_readout
0  Cn1nc(-c2ccc(F)cc2)c(-c2ccc3nc(NC(=O)c4ccnc(N)c4)cn3n2)c1N1CCNCC1 [Compound 140]   nM              2.4
1  Cn1cc(-c2ccc3nc(NC(=O)c4ccccn4)cn3n2)c(-c2ccc(F)cc2)n1 [Compound 96]   nM               42
2  Cn1nc(-c2ccc(F)cc2)c(-c2ccc3nc(NC(=O)c4ccncc4)cn3n2)c1C1CCOCC1 [Compound 197]   nM              1.8
3  Cn1cc(-c2ccc3nc(NC(=O)c4ncccc4Cl)cn3n2)c(-c2ccc(F)cc2)n1 [Compound 36]   nM             13.7

P: Cn1cc(-c2ccc3nc(NC(=O)c4cccc(F)c4)cn3n2)c(-c2ccc(F)cc2)n1 [Compound 23]
Q: Cn1cc(-c2ccc3nc(NC(=O)c4ccncc4)c(-c4ccncc4)n3n2)c(-c2ccc(F)cc2)n1 [Compound 194, TFA]
R: Cn1cc(-c2ccc3nc(NC(=O)c4ccc(Br)cc4F)cn3n2)c(-c2ccc(F)cc2)n1 [Compound 42]
S: Cc1nc(-c2cccnc2)sc1C(=O)Nc1cn2nc(-c3c(-c4ccc(F)cc4)nn(C)c3N3CCOCC3)ccc2n1 [Compound 146]
Request: Could you please sort these 4 entries by IC50 from high to low? // list labels; follow requested order
Result: Q, R, P, S
(Q: 554 nM, R: 13.7 nM, P: 8.6 nM, S: 4.9 nM)

a: COc1cccc(C(=O)Nc2cn3nc(-c4cn(C)nc4-c4ccc(F)cc4)ccc3n2)c1F [Compound 59]
b: Cn1nc(-c2ccc(F)cc2)c(-c2ccc3nc(NC(=O)c4ccnc(N)c4)cn3n2)c1N1CCN(Cc2ccon2)CC1 [Compound 142]
c: Cn1nc(-c2ccc(F)cc2)c(-c2ccc3nc(NC(=O)c4ccncc4)cn3n2)c1C1CCN(CCO)CC1 [Compound 168]
d: Cn1nc(-c2ccc(F)cc2)c(-c2ccc3nc(NC(=O)c4ccnc(N5CCOCC5)c4)cn3n2)c1N1CCN(CCCF)CC1 [Compound 139]
e: Cc1nc(-c2ccccc2)sc1C(=O)Nc1cn2nc(-c3cn(C)nc3-c3ccc(F)cc3)ccc2n1 [Compound 7]
Request: Could you please sort these 5 entries by IC50 from high to low? // list labels; follow requested order
Result: e, a, d, b, c
(e: 34.1 nM, a: 22.1 nM, d: 9.3 nM, b: 2.2 nM, c: 1.5 nM)
